# assay_system: alpha-2-marcroglobin (A2M) (UniProt P01023)
# Sequence (P01023 24-1474): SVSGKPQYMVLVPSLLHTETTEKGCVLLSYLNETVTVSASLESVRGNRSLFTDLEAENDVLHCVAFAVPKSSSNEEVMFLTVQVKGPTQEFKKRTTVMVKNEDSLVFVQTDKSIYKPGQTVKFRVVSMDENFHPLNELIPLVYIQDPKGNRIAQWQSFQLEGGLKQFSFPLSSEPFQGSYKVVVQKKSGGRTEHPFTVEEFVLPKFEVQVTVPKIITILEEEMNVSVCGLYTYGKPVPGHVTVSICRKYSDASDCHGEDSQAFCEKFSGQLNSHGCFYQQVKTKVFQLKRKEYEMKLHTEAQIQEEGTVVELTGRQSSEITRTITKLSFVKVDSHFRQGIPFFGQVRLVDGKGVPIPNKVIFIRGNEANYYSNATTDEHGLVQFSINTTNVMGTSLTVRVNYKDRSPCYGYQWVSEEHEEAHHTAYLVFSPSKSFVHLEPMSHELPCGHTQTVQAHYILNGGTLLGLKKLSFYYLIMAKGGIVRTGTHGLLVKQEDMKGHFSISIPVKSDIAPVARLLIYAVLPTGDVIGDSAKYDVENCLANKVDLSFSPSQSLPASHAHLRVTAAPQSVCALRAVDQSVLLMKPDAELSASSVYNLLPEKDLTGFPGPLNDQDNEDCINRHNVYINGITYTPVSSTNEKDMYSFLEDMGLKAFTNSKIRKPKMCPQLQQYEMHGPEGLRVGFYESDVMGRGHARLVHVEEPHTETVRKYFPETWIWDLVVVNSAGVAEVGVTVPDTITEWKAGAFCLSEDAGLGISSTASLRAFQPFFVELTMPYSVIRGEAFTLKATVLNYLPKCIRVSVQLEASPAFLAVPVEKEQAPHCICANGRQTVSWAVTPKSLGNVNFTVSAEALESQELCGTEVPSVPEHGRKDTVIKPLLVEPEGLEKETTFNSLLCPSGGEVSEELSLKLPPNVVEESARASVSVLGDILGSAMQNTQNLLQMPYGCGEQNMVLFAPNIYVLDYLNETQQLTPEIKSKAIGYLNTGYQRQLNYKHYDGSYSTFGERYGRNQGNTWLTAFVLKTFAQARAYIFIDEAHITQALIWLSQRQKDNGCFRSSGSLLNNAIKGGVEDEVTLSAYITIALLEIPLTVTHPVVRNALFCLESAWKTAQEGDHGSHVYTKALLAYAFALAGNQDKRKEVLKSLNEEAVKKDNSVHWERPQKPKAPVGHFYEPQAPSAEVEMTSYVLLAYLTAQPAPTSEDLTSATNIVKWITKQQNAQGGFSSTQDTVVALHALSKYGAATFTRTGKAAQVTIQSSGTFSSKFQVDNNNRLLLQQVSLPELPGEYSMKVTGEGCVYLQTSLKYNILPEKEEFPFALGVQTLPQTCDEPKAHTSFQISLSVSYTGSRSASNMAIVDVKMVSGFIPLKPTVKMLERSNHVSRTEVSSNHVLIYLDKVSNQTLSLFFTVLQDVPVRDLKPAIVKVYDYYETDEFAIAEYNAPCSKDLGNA
# assay_remarks: inhibition of the protease by the plasma inhibitor
observation_type: kapp (M⁻¹ s⁻¹)
Write the number in M⁻¹ s⁻¹ without appending the unit.

The reported value for chymase C22S/F173Y/D175N/A226R (enzyme) IIGGTESKPHSRPYMAYLEIVTSNGPSKFCGGFLIRRNFVLTAAHCAGRSITVTLGAHNITEEEDTWQKLEVIKQFRHPKYNTSTLHHDIMLLKLKEKASLTLAVGTLPFPSQFNFVPPGRMCRVAGWGRTGVLKPGSDTLQEVKLRLMDPQACSHYRNFDHNLQLCVGNPRKTKSAFKGDSGGPLLCAGVAQGIVSYGRSDAKPPRVFTRISHYRPWINQILQAN in terms of kapp is 645

The reported value for chymase C22S/L99H/F173Y/K192R/S218L/A226R (enzyme) IIGGTESKPHSRPYMAYLEIVTSNGPSKFCGGFLIRRNFVLTAAHCAGRSITVTLGAHNITEEEDTWQKLEVIKQFRHPKYNTSTHHHDIMLLKLKEKASLTLAVGTLPFPSQFNFVPPGRMCRVAGWGRTGVLKPGSDTLQEVKLRLMDPQACSHYRDFDHNLQLCVGNPRKTKSAFRGDSGGPLLCAGVAQGIVSYGRLDAKPPRVFTRISHYRPWINQILQAN in terms of kapp is 356

The reported value for chymase C22S/A226R (enzyme) IIGGTESKPHSRPYMAYLEIVTSNGPSKFCGGFLIRRNFVLTAAHCAGRSITVTLGAHNITEEEDTWQKLEVIKQFRHPKYNTSTLHHDIMLLKLKEKASLTLAVGTLPFPSQFNFVPPGRMCRVAGWGRTGVLKPGSDTLQEVKLRLMDPQACSHFRDFDHNLQLCVGNPRKTKSAFKGDSGGPLLCAGVAQGIVSYGRSDAKPPRVFTRISHYRPWINQILQAN in terms of kapp is 812

The reported value for chymase C22S/L99Y/F173Y/K192R/S218L/A226R (enzyme) IIGGTESKPHSRPYMAYLEIVTSNGPSKFCGGFLIRRNFVLTAAHCAGRSITVTLGAHNITEEEDTWQKLEVIKQFRHPKYNTSTYHHDIMLLKLKEKASLTLAVGTLPFPSQFNFVPPGRMCRVAGWGRTGVLKPGSDTLQEVKLRLMDPQACSHYRDFDHNLQLCVGNPRKTKSAFRGDSGGPLLCAGVAQGIVSYGRLDAKPPRVFTRISHYRPWINQILQAN in terms of kapp is 3130
